assay: binders of probe aFGF10 on microarray, primary screen, stem cell growth factor project, biochemical, small-molecule microarray, fluorescence 635/667 (AID 1071); conditions: higher = more signal;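 also: score merges 667 nm spot intensity and signal to noise from triplicate slides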
Respond with Fulfilled for composite z-score values of 0.2 and above, Not fulfilled for values below.

COC(=O)[C@@H]1CC[C@H](C)[C@@H](c2ccc(C)cc2)N1C(=O)c1ccc(C=NO[C@H](C)c2cn([C@H](CO)Cc3ccccc3)nn2)cc1 ... Fulfilled
CC(C)=CCCC(C)=CCON=C1C[C@@H](O)[C@@H](O)[C@@H]2[C@@H]3C(=O)N(c4ccc(F)cc4F)C(=O)[C@@H]3CC[C@H]12 ... Not fulfilled
CCOC(=O)NN=C1C[C@@H](O)[C@@H](O)[C@@H]2[C@@H]3C(=O)N([C@@H](C)c4ccccc4)C(=O)[C@@H]3CC[C@@H]12 ... Fulfilled

I'd appreciate it if you could say whether CO[C@H]1COC(=O)CC=C[C@H](C)COC(=O)[C@@H](C)NC(=O)CC=C[C@@H]1C has composite z-score at least equal to 0.2.
Fulfilled

Moving on to C[C@H](ON=C1[C@H]2CCn3c(=O)n(-c4ccccc4)c(=O)n3[C@H]2[C@H](O)[C@@H]2O[C@H]12)c1cn([C@H](CO)Cc2ccccc2)nn1
Fulfilled

Moving on to COC(=O)CC=C[C@@H](C)[C@@H](C=NO[C@H](C)c1cn([C@@H]2COC[C@H]2O)nn1)NS(=O)(=O)c1ccc(C)cc1
Fulfilled

Moving on to COCCNC(=O)OCC1CCCC2(CC(OC(=O)NCc3ccc4c(c3)OCO4)CC(CCC(=O)N[C@@H](C)C(=O)OC)O2)O1 (some centres undefined)
Fulfilled

Moving on to O=C1[C@H]2[C@H]3[C@H](O)[C@H](O)CC(=NOCc4ccccc4)[C@@H]3CC[C@H]2C(=O)N1Cc1ccc2c(c1)OCO2
Fulfilled

====

assay: binders of probe aFGF10 on microarray, primary screen, stem cell growth factor project, biochemical, small-molecule microarray, fluorescence 635/667 (AID 1071); conditions: higher = more signal;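 also: score merges 667 nm spot intensity and signal to noise from triplicate slides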
Respond with satisfied for composite z-score values of 0.2 and above, not satisfied for values below.

CO[C@H](C1CCCCC1)[C@H](C)C=CCC(=O)OCCCc1ccccc1 ... not satisfied

I'd appreciate it if you could say whether C#CCCCON=C1C[C@@H](O)[C@@H](O)[C@@H]2[C@@H]3C(=O)N(c4ccc(F)cc4F)C(=O)[C@@H]3CC[C@H]12 has composite z-score at least equal to 0.2.
satisfied

Moving on to O=C1C=C[C@@H](O)[C@@H]2[C@@H]3C(=O)N(c4ccc(F)cc4F)C(=O)[C@@H]3CC[C@@H]12
satisfied

Moving on to CC(C)=CCCC(C)=CCON=C1C[C@@H](O)[C@@H](O)[C@@H]2[C@@H]3C(=O)N(c4ccc(F)cc4F)C(=O)[C@@H]3CC[C@@H]12
satisfied

Moving on to CCOC(=O)[C@H](CC(C)C)NC(=O)CCC1CC(OC(=O)NCCc2ccc(F)cc2)CC2(CCCC(COC(=O)NCCc3ccc(Cl)cc3)O2)O1 (some centres not stated)
satisfied

Moving on to C#CCCCON=C1C[C@@H](O)[C@@H](O)[C@@H]2[C@@H]3C(=O)N(c4ccc(F)cc4F)C(=O)[C@@H]3CC[C@@H]12
not satisfied

Moving on to CON=CC[C@@H]1C=C[C@H](OC(C)=O)[C@@H](COC(C)=O)O1
not satisfied
